Here, molecules appear alongside pKi reported for SYK kinase (Homo sapiens, UniProt P43405) in the literature.
pKi: −log10 of the molar value.

// below: answered molecules
| TEST_SMILES | TARGET_UNDER_TEST | pKi |
| --- | --- | --- |
| COc1cc(OC)c2nc(Nc3ccc(CN4CCN(C)CC4)cc3)c3n[nH]cc3c2c1 | SYK kinase (Homo sapiens, UniProt P43405) | 7.00 to 8.00 |
| Fc1cc(Nc2nc(-c3cccs3)nc3cn[nH]c23)ccc1N1CCOCC1 | SYK kinase (Homo sapiens, UniProt P43405) | > 8.00 |
| CN(C)Cc1ccc(Nc2nc(-c3cccc(N)c3)nc3cn[nH]c23)cc1 | SYK kinase (Homo sapiens, UniProt P43405) | 7.00 to 8.00 |
| COc1ccccc1-c1nc(Nc2ccc3cn[nH]c3c2)c2[nH]ncc2n1 | SYK kinase (Homo sapiens, UniProt P43405) | 7.00 to 8.00 |

Problem: Sample Brc1ccc2nc(Nc3ccc4[nH]ncc4c3)c3n[nH]cc3c2c1 — what was its pKi?
Solution: 7.00 to 8.00

Problem: What pKi value was documented for this molecule, COc1ccc2nc(Nc3ccc(N4CCN(C5CCCC5)CC4)cc3)c3n[nH]cc3c2c1 ?
Solution: 6.00 to 7.00

Problem: Quick one: pKi of COc1cc(Nc2nccc(-c3cscn3)n2)cc(C(F)(F)F)c1 ?
Solution: ≥ 5.30

Problem: Please report the recorded pKi for CS(=O)(=O)Nc1ccc(-c2cnc3[nH]cc(-c4oncc4-c4cccc(F)c4F)c3c2)cc1 .
Solution: 4.90 to 6.00
